- study system: T1, biotin-labeled human PD-1 Fc protein (human, biotin-labeled (site not stated))
- T1 construct: also called PD-1-Fc-biotin
- experiment: competition ELISA, antibody + biotin human PD-1 Fc on coated Nivolumab (competitor Nivolumab)
observed property: pIC50
Here pIC50 is given on a logarithmic scale as minus log10 of the concentration in mol/L.

Field: example entries. Status: answers known.
binder	numeric result
mouse anti-PD-1 monoclonal antibody D2H3 (antibody, V domains shown, Mouse antibody purified from a hybridoma; also called Mouse D2H3; mouse D2H3) VH: EVQLQQSGTVLARPGASVKMSCKSSGYTFTNYWMHWVKQRPGQGLEWIGAIFPRNSETNYNQKFKAKAKLTAVTSASTAYMEVSSLTSEDSAVYFCTRNRYGLDYWGQGTSVTVSS VL: DIVLTQSPGFLAVSLGQRATISCRASESVSLHGTRLMHWYHQKPGQPPKLLISLGSNLESGVPARFSGSGSETDFTLNIHPVEEEDAATYFCQQSIEDPWTFGGGTKLEIK	9.68
huD2H3-V14 (antibody, human IgG1, kappa, V domains shown, Humanized D2H3, human IgG1/kappa) VH: EVQLVQSGAEVKKPGSSVKVSCKASGYTFTNYWMHWVRQAPGQGLEWMGAIFPRNSETNYNQKFKARVTITADESTSTAYMELSSLRSEDTAVYYCTRNRYGLDYWGQGTLVTVSS VL: DIVMTQSPDSLAVSLGERATINCRASESVSLHGTRLMHWYQQKPGQPPKLLIYLGSNLESGVPDRFSGSGSGTDFTLTISSLQAEDVAVYYCQQSIEDPWTFGQGTKLEIKR	9.74

// next item, pIC50 requested
// field: pIC50; key: huD2A4-V6 (antibody, human IgG1, kappa, V domains shown, Humanized D2A4, human IgG1/kappa) VH: EVQLVESGGGLVQPGGSLRLSCAASGFTFSSYTMSWVRQAPGKGLEWVSTISGGGSNTYYPDSVKGRFTISRDNSKNTLYLQMNSLRAEDTAVYYCARQAFYSNYWYFDVWGKGTTVTVSS VL: DIQMTQSPSSVSASVGDRVTITCLASQTIGTWLAWYQQKPGKAPKLLIYAATSLADGVPSRFSGSGSGTDFTLTISSLQPEDFATYYCQQVSSIPWTFGGGTKVEIKR ; value = 9.31
